- Assay Comment: Volume of distribution at steady state in rat at 1 mg/kg, iv
- Format: ADME, organism-based
- Assay Conditions: in vivo, read-out: Vdss
Assay Readout: Vd (L/kg)

1. Cc1cccc2ccc(N3CC[C@H](C(=O)N[C@H]4CCC[C@H](CO)C4)C(C)(C)C3)nc12 = 1.3
2. Cc1cccc2ccc(N3CC[C@H](C(=O)N[C@H]4CCO[C@H](CO)C4)C(C)(C)C3)nc12 = 2.3
3. Cc1cccc2ccc(N3CC[C@H](C(=O)N[C@H]4CC[C@@H](CO)CC4)C(C)(C)C3)nc12 = 1.4

====

Each item that follows carries a reported clearance.
- Assay Comment: Clearance in rat at 1 mg/kg, iv
- Assay type: ADME, organism-based
- Assay Conditions: in vivo
Assay Readout: clearance

1) Cc1cccc2ccc(N3CC[C@H](C(=O)N[C@H]4CCO[C@H](CO)C4)C(C)(C)C3)nc12 = 14 mL/min/kg
2) Cc1cccc2ccc(N3CC[C@H](C(=O)N[C@H]4CC[C@@H](CO)CC4)C(C)(C)C3)nc12 = 21 mL/min/kg
3) Cc1cccc2ccc(N3CC[C@H](C(=O)N[C@H]4CCC[C@H](CO)C4)C(C)(C)C3)nc12 = 34 mL/min/kg

====

- Assay Comment: Oral bioavailability in Beagle dog at 15 mg/kg
- Assay type: ADME, organism-based, Canis lupus familiaris
- Assay Conditions: in vivo
Assay Readout: bioavailability

1. Cc1cccc2ccc(N3CC[C@H](C(=O)N[C@H]4CCO[C@H](CO)C4)C(C)(C)C3)nc12 = 74%

====

- Assay Comment: Volume of distribution at steady state in Beagle dog at 1 mg/kg, iv
- Type: ADME, organism-based, Canis lupus familiaris
- Assay Conditions: in vivo, read-out: Vdss
Assay Readout: Vd (L/kg)

1. Cc1cccc2ccc(N3CC[C@H](C(=O)N[C@H]4CCO[C@H](CO)C4)C(C)(C)C3)nc12 = 1.6

====

- Assay Target: UniProtKB O14684
- Sequence (O14684 whole entry): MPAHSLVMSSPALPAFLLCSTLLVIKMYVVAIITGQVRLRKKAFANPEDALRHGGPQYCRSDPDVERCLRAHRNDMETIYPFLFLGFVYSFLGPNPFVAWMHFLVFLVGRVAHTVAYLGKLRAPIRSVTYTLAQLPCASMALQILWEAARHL
- Assay Comment: Inhibition of human mPGES-1 expressed in 293E cells assessed as reduction in conversion of PGH2 to PGE2 after 1.5 min by LC/MS analysis
- Assay type: cell-based
Each item that follows carries a reported IC50.
Assay Readout: IC50 (nM)

1. Cc1cccc2ccc(N3CC[C@H](C(=O)N[C@H]4CCC[C@H](CO)C4)C(C)(C)C3)nc12 = 1
2. CC1(C)CN(c2ccc3cccc(Cl)c3n2)CC[C@@H]1C(=O)N[C@H]1CC[C@@H](CO)CC1 = 4
3. CC1(C)CN(c2ccc(C(F)(F)F)cc2)CC[C@@H]1C(=O)N[C@H]1CCC[C@H](CO)C1 = 3
4. Cc1cccc2ccc(N3CC[C@H](C(=O)N[C@H]4CCOC4)C(C)(C)C3)nc12 = 6
5. Cc1cccc2ccc(N3CC[C@H](C(=O)N[C@H]4CCO[C@H](CO)C4)C(C)(C)C3)nc12 = 2
6. Cc1cccc2ccc(N3CC[C@H](C(=O)N[C@H](C)C(C)C)C(C)(C)C3)nc12 = 12
7. CC1(C)CN(c2ccc(C(F)(F)F)cc2)CC[C@H]1C(=O)N[C@H]1CCC[C@H](CO)C1 = 504
8. Cc1cccc2ccc(N3CC[C@H](C(=O)N[C@H]4CC[C@@H](CO)CC4)C(C)(C)C3)nc12 = 1
9. CC1(C)CN(c2ccc3cccc(Cl)c3n2)CC[C@H]1C(=O)N[C@H]1CC[C@@H](CO)CC1 = 3720
10. Cc1cccc2ccc(N3CC[C@H](C(=O)N[C@H]4CCCOC4)C(C)(C)C3)nc12 = 7
